Where do these numbers come from? They come from ChEMBL document CHEMBL1158459.

- ASSAY_SUMMARY: AUC in rat at 2 mg/kg, po
- Format: ADME, organism-based, Plasma
- Parameters: dose 2 mg/kg, route oral
- MEASUREMENT_CONDITIONS: plasma
PARAMETER_MEASURED: log10 of AUC (log10 of the value in µM·h)

COMPOUND | log10 of AUC
CC[C@@H](Oc1cccc(Cn2c(C)c(C(=O)c3ccc(Cl)cc3)c3ccc(OC(F)(F)F)cc32)c1)C(=O)O | 0.18
Cc1c(C(=O)c2ccc(Cl)cc2)c2ccc(OC(F)(F)F)cc2n1Cc1cccc(O[C@@H](C)C(=O)O)c1 | -0.22
Cc1c(C(=O)c2ccc(Cl)cc2)c2ccc(OC(F)(F)F)cc2n1Cc1cccc(O[C@H](C(=O)O)C(C)C)c1 | 0.18
CCC[C@H](Oc1cccc(Cn2c(C)c(C(=O)c3ccc(Cl)cc3)c3ccc(OC(F)(F)F)cc32)c1)C(=O)O | 0.08
Cc1c(C(=O)c2ccc(Cl)cc2)c2ccc(OC(F)(F)F)cc2n1Cc1cccc(O[C@H](C)C(=O)O)c1 | 0.04
CCC[C@@H](Oc1cccc(Cn2c(C)c(C(=O)c3ccc(Cl)cc3)c3ccc(OC(F)(F)F)cc32)c1)C(=O)O | 0.23
CN(CCOc1ccc(CC2SC(=O)NC2=O)cc1)c1ccccn1 (stereo not drawn) [ROSIGLITAZONE] | 1.21
Cc1c(C(=O)c2ccc(Cl)cc2)c2ccc(OC(F)(F)F)cc2n1Cc1cccc(O[C@@H](C(=O)O)C(C)C)c1 | 0.54
